# target.or.test.system: gp120 of viral strain VI820 (HIV, strain VI820)
# experiment.description: cell-based or functional assay
*1 amine or outer side, *2 acyl side, *3 side chain or, on linkers, in order; H or OH if unused. [ ]: non-standard residue; d: D form. U1 = 4-cyclohexylmethoxy-L-phenylalanine, O=C([C@H](Cc1ccc(OCC2CCCCC2)cc1)N[*:1])[*:2]; Tpa = thiopropionic acid
Readings of EC50 (antiviral activity, TZM-bl cells, luciferase) for the listed binders
Kindly answer with a numeric value in nM, unit omitted.

Reference set, count: 2
mCD4.3-PS1 (not fully specified; N-terminal gamma-aminobutyric acid (gammaAbu) acylated with 3-thiopropionyl (from SATP); all six Tyr are sulfotyrosine (YSO3); N-terminal Tpa; D-proline at position 21; U1 (4-cyclohexylmethoxy-L-phenylalanine) at position 23; C-terminal amide; Lys5 N-epsilon carries the PEO2-maleimide linker bound to the thiol of the PS1 chain) peptide 1: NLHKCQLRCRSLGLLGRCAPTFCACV peptide 2: SYDYSYDYSYDYS :: 0.024
Tpa-NLHFCQLRCKSLGLLGRCA[dP]T[U1]CACV-NH2 (disulfide (positions not given here)) [M48U1] :: 3.8

Proceeding to the next binder to report its EC50 (antiviral activity, TZM-bl cells, luciferase).
Query: Using the record for M48U1-PS1 (not fully specified; N-terminal gamma-aminobutyric acid (gammaAbu) acylated with 3-thiopropionyl (from SATP); all six Tyr are sulfotyrosine (YSO3); N-terminal Tpa; D-proline at position 21; U1 (4-cyclohexylmethoxy-L-phenylalanine) at position 23; C-terminal amide; Lys11 N-epsilon carries the PEO2-maleimide linker bound to the thiol of the PS1 chain) peptide 1: NLHFCQLRCKSLGLLGRCAPTFCACV peptide 2: SYDYSYDYSYDYS , state its measured EC50 (antiviral activity, TZM-bl cells, luciferase).
Reply: 0.1
